I'd be grateful if you could share measured EC50 for these entries.
- Measured target: UniProt P25090
- Experiment summary: FLIPR Ca+2 response, HEK-Gα16 cells stably expressing the human FPR2 receptor (Table 4)
- Type: cell-based
Answer with the value and then the unit.

Use these answered entries as a reference point.
Compound	EC50
CC(C)C[C@H](NC(=O)Nc1ccc(Br)cc1)C(=O)NCCO [Compound 75]	13.5 nM
CC(C)C[C@H](NC(=O)Nc1ccc(C(F)(F)F)cc1)C(=O)NCS(=O)(=O)O [Compound 237]	1.9 nM
CC(C)C1(CC(=O)NCCO)NC(=O)N(NC(=O)Nc2ccc(Br)cc2F)C1=O (stereo not shown) [Compound 148]	6.9 nM
CCC[C@H](NC(=O)[C@H](CC(C)C)NC(=O)Nc1ccc(Br)cc1)C(N)=O [Compound 102]	7.3 nM

Quick one: give me EC50 for each item below, same order please.
1. CCOP(=O)(O)CNC(=O)[C@@H](NC(=O)Nc1ccc(Br)cc1)[C@@H](C)CC [Compound 115]
2. CC1(CCc2ccc(F)cc2)NC(=O)N(NC(=O)Nc2ccc(Br)cc2)C1=O (stereo not shown) [Compound 82]
3. CC(C)C1(CC(=O)NCCC(=O)O)NC(=O)N(NC(=O)Nc2ccc(Br)cc2)C1=O (stereo not shown) [Compound 147]

2.7 nM
16.3 nM
3.9 nM

---

- Measured target: FPR2 (Homo sapiens (Human), UniProt P25090)
- Sequence (P25090 whole entry): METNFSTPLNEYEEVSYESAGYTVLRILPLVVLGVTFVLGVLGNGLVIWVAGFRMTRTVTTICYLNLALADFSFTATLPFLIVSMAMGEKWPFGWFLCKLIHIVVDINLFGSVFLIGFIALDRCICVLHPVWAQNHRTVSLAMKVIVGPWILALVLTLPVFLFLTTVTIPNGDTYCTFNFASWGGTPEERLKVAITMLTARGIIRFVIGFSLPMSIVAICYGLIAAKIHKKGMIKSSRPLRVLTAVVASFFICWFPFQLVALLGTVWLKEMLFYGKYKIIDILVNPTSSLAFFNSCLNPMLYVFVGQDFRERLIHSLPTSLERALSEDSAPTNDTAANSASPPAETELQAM
- Experiment summary: FPR2 Ga16-CHO EC50 (efficacy), Tables 1-3
- Format: cell-based
- Study conditions: efficacy in parentheses
Measured metric: FPR2 Ga16-CHO (efficacy)

Compound	Measured target	Result
O=C(CN1C(=O)NC2(CCCCCC2)C1=O)Nc1ccc(Br)cc1	FPR2 (Homo sapiens (Human), UniProt P25090)	nM (0.96)
CC(C)[C@H](NC(=O)Nc1ccc(Br)cc1F)C(=O)O	FPR2 (Homo sapiens (Human), UniProt P25090)	nM (0.91)
O=C(Nc1ccc(Br)cc1)N[C@H](C(=O)O)c1ccccc1	FPR2 (Homo sapiens (Human), UniProt P25090)	nM (0.94)
O=C(Nc1ccc(Br)cc1)N[C@@H](Cc1ccccc1)C(=O)O	FPR2 (Homo sapiens (Human), UniProt P25090)	nM (1.0)

Quick one: give me FPR2 Ga16-CHO (efficacy) for each item below, same order please.
1. O=C(Nc1ccc(Cl)cc1)NC(Cc1ccccc1)C(=O)O (centres unmarked)
2. O=C(Nc1ccc(OC(F)(F)F)cc1)NC(Cc1ccccc1)C(=O)O (centres unmarked)
3. O=C(CN1C(=O)NC2(CCCC2)C1=O)Nc1ccc(Br)cc1
4. O=C(CN1C(=O)NC2(CCCCC2)C1=O)Nc1ccc(Br)cc1

1. nM (1.0)
2. nM (0.79)
3. nM (0.96)
4. nM (0.89)

Quick one: give me FPR2 Ga16-CHO (efficacy) for each item below, same order please.
1. CCC1(CC)NC(=O)N(CC(=O)Nc2ccc(Br)cc2)C1=O
2. CCC1(C)NC(=O)N(CC(=O)Nc2ccc(Br)cc2)C1=O (centres unmarked)
3. CCC1(CC)NC(=O)N(CC(=O)Nc2ccc(Cl)cc2)C1=O
4. O=C(Nc1ccc(Br)cc1)NC(Cc1c[nH]c2ccccc12)C(=O)O (centres unmarked)

nM (0.98)
nM (1.0)
nM (0.79)
nM (0.89)

Quick one: give me FPR2 Ga16-CHO (efficacy) for each item below, same order please.
1. Cc1ccc(NC(=O)NN2C(=O)NC3(CCC(C)CC3)C2=O)cc1 (centres unmarked)
2. CCC1(C)NC(=O)N(NC(=O)Nc2ccc(Cl)cc2)C1=O (centres unmarked)
3. CC1(C)NC(=O)N(CC(=O)Nc2ccc(Br)cc2)C1=O
4. CC(C)[C@H](NC(=O)Nc1ccc(Br)cc1)C(=O)O
5. CC1(CCc2ccccc2)NC(=O)N(NC(=O)Nc2ccccc2F)C1=O (centres unmarked)
6. O=C(Nc1ccc(Cl)cc1)NN1C(=O)NC2(CCCCC2)C1=O

["nM (0.91)", "nM (0.96)", "nM (0.94)", "nM (0.91)", "nM (0.94)", "nM (0.98)"]

Quick one: give me FPR2 Ga16-CHO (efficacy) for each item below, same order please.
1. CCCC1(CCC)NC(=O)N(CC(=O)Nc2ccc(Br)cc2)C1=O
2. CC[C@H](C)[C@H](NC(=O)Nc1ccc(Br)cc1)C(=O)O
3. CC1(CCc2ccccc2)NC(=O)N(NC(=O)Nc2ccccc2)C1=O (centres unmarked)

1. nM (0.98)
2. nM (0.89)
3. nM (1.0)
